Catalogue of Percent Effect values
Tested on: Mycobacterium tuberculosis
Test: Cornell M. t heat shock assay; also: in the data most compounds retested in dose-response had high values
Assay type: functional, organism-based
Set-up: dose or concentration left out as unconfirmed
In all, about 69,000 compounds went through this assay and about 950 (1.4%) showed an effect of 50% or more. What follows is part of a selection rich in strong results, with near analogues and random picks from the rest.
Your answer is read as %, so omit the unit and give the number.

Solved cases below.
Compound	Quantity unit	Percent Effect
CCc1c(C)[nH]c(C2(N)CCCCC2)nc1=O.Cl	%	-31.03
CC1=C(C#N)C(=O)N(C)C(=O)/C1=C\C1=Cc2ccccc2OC1	%	-26.04
O=C1CCCC2=C1C(c1ccc(Cl)cc1Cl)Nc1nonc1N2 (stereo unspecified)	%	15.96
COc1c(CNC(c2nccn2C)C(C)C)c(C)nn1C (stereo unspecified)	%	2.612
c1csc(CN2CCCN(c3ccc(Cn4ccnc4)cn3)CC2)c1	%	-13.19
Fc1ccc(N2CCCN(c3ccc(Cn4ccnc4)cn3)CC2)cc1	%	107.2
CN(C)C(=O)COCC1CN(Cc2cccs2)Cc2ncn(C)c21.O=C(O)C(F)(F)F.O=C(O)C(F)(F)F (stereo unspecified)	%	-34.33
Cn1cc(CN2CCC3(CCCN3Cc3cccnc3)CC2)cn1.O=C(O)C(F)(F)F.O=C(O)C(F)(F)F.O=C(O)C(F)(F)F	%	-39.86

[ask] Param readout= Percent Effect; system= Mycobacterium tuberculosis; entry= COc1ccccc1C(NCc1ccc(SC)cc1)c1nccn1C (stereo unspecified) ; returns value.
[reply] 111.2

[ask] And Fc1ccccc1C(CNc1ccncn1)N1CCCC1 (stereo unspecified) ?
[reply] -9.26

[ask] Also need c1cn(Cc2ccc(N3CCCN(C4CCCC4)CC3)nc2)cn1 , thanks.
[reply] 1.871

====

Below is a list of entries, each paired with its recorded Percent Effect value.
System: Mycobacterium tuberculosis
Assay: Cornell M. t heat shock assay; also: in the data most compounds retested in dose-response had high values
Format: functional, organism-based
Set-up: dose or concentration left out as unconfirmed
Hit rate of the full screen: of about 69,000 compounds, about 950 (1.4%) showed an effect of 50% or more. This excerpt belongs to a sample that is enriched for strong results.
Number in %, nothing else.

A selection of reference data follows.
Compound	Quantity unit	Percent Effect
O=C(C1CCCO1)N1CCc2ncnc(NC3CCC3)c2CC1.O=C(O)C(F)(F)F (stereo unspecified)	%	-8.605
c1ccc(CNc2ccccc2N2CCCC2)nc1	%	50.65
Cc1ccccc1-n1cc(-c2ccnc(N3CCCC(CN)C3)n2)cn1 (stereo unspecified)	%	6.089

[ask] Query: Percent Effect; subject: CCCn1cc(-c2cc(-c3c[nH]cn3)c(C#N)c(N)n2)c(C)n1
[reply] 15.71

[ask] What about COc1ncc(-c2cc(-c3ccn(C)c3)nc(N)c2C#N)cn1 ?
[reply] -43.44

====

System: Mycobacterium tuberculosis
Experiment: Cornell M. t heat shock assay; also: in the data most compounds retested in dose-response had high values
Assay type: functional, organism-based
Set-up: dose or concentration left out as unconfirmed
The whole screen tested about 69,000 compounds, of which about 950 (1.4%) showed an effect of 50% or more. The full list was thinned out, with strong results kept by preference.
Readout name: Percent Effect (%)
Give your result in % as a bare value.

Compound	Percent Effect [%]
Cc1nnc(N2CC[C@H]3C[C@H](C(=O)N4CCOCC4)O[C@H]3C2)s1.O=C(O)C(F)(F)F	5.897

[ask] For O=C(O)c1cccc(CN2CCCC(c3ccn[nH]3)C2)c1 (centres undefined) , what is its reported Percent Effect?
[reply] -8.776

[ask] Try this compound next: O=C(CC1CC1)N1CCC2(CCCN(CCOc3ccccc3)C2)C1.O=C(O)C(F)(F)F (centres undefined)
[reply] -8.964

[ask] Repeat for the following compound: Cc1cnn(CC2CCCCN2CC(=O)Nc2nc(C)cs2)c1 (centres undefined)
[reply] 74.94

[ask] Also CCOc1ccc(CN2CC[C@H]3CC[C@@H](C2)N3)cc1CO , if possible.
[reply] -10.09

====

Test system: Mycobacterium tuberculosis
Assay: Cornell M. t heat shock assay; also: in the data most compounds retested in dose-response had high values
Format: functional, organism-based
Set-up: dose or concentration left out as unconfirmed
Among all 69,000 compounds or so, about 950 (1.4%) showed an effect of 50% or more. Shown is part of a subset that was picked to be rich in strong results.
Each entry below carries its recorded Percent Effect.
API: value field is a number in %; no unit string.

// below: answered molecules
Chemical string	Percent Effect (%)
CNC(=O)NC(=O)CCN1CCN(c2nccs2)CC1	23.87
O=C(CCN1CCCN(c2nccs2)CC1)Nc1ccccc1	-8.927
c1ccc(O[C@H]2COCCN(Cc3c[nH]c4ccccc34)C2)cc1	78.8
NC(=O)NC(=O)CCN1CCCN(c2nccs2)CC1	91.9
Fc1ccc(CN2CCOC[C@H](Oc3cccnc3)C2)cc1	-34.69

[ask] Field request: Percent Effect | item: O=C(CCN1CCCN(c2nccs2)CC1)NCC1CCCCC1
[reply] 0.6887

====

System: Mycobacterium tuberculosis
Assay: Cornell M. t heat shock assay; also: in the data most compounds retested in dose-response had high values
Assay type: functional, organism-based
Set-up: dose or concentration left out as unconfirmed
Screen size: about 69,000 compounds; about 950 (1.4%) showed an effect of 50% or more. The list comes from a sample in which strong results are over-represented; it also holds close analogues and randomly drawn compounds.
Readout name: Percent Effect (%)
Reply with just the number (in %).

Compound	Percent Effect / %
CN1CC(=O)N(c2ccsc2)CC12CCN(Cc1cnn(C)c1)C2.O=C(O)C(F)(F)F.O=C(O)C(F)(F)F (stereo not given)	-44.55
Cc1noc(C)c1CN1CC[C@H]2[C@@H]1CCC(=O)N2CC1CCOCC1.O=C(O)C(F)(F)F	19.97
O=C(N[C@H]1CCCC[C@@H]1O)c1ccc(-c2nc3ccccc3[nH]2)cc1	47.47
CC(=O)N1CCN(Cc2nccs2)CC2(CC(=O)N(C)C2)C1.O=C(O)C(F)(F)F (stereo not given)	-21.46
Br.O=C(CN(C1=NCCCC1)c1ccccc1)c1ccc(OC(F)F)cc1	95.91

[ask] What value of Percent Effect has been reported for the following compound? Cc1ccsc1CN1CCc2nc3ccsc3c(=O)n2CC1.Cl
[reply] 3.746

[ask] Please give the result for Cc1ccc(CN2Cc3ccccc3O[C@]3(CC[C@H](CO)CC3)C2)o1.Cl too.
[reply] -44.64

[ask] Same read-out for Br.CCOc1ccc(N(CC(=O)c2ccccc2)C2=NCCCCC2)cc1 ?
[reply] 104.1

[ask] Also need O=C(N[C@H]1CCCC[C@@H]1O)c1ccc2nc(-c3ccccc3)[nH]c2c1 , thanks.
[reply] 0.8647

[ask] Here is the next compound: Br.COc1ccc(C(=O)CN(C2=NCCCCC2)c2ccccc2)cc1
[reply] 22.41

====

Tested on: Mycobacterium tuberculosis
Assay: Cornell M. t heat shock assay; also: in the data most compounds retested in dose-response had high values
Format: functional, organism-based
Parameters: dose or concentration left out as unconfirmed
In all, about 69,000 compounds went through this assay and about 950 (1.4%) showed an effect of 50% or more. The list comes from a sample in which strong results are over-represented; it also holds close analogues and randomly drawn compounds.
# Percent Effect annotations
Give the value in % but do not write % after it.

Worked cases, answers included:
Compound	Experimental target	Quantity unit	Percent Effect
O=C(O)C(F)(F)F.O=C(O)C(F)(F)F.c1cncc(-c2ccc3c(c2)CCC32CCN(Cc3nccs3)CC2)c1	Mycobacterium tuberculosis	%	74.6
CC1CCN(c2cc(CCC3CCCN3)ncn2)CC1.Cl (centres undefined)	Mycobacterium tuberculosis	%	-19.69
Cc1ccc(CN2CCC3(C2)C(=O)N(CC2CC2)c2ccccc23)s1.O=C(O)C(F)(F)F (centres undefined)	Mycobacterium tuberculosis	%	22.05
Cl.O=c1c2sccc2nc2n1CCN(Cc1ccccc1C(F)(F)F)CC2	Mycobacterium tuberculosis	%	24

[ask] Fill in: Percent Effect of Cc1ccc(CN2CCC3(CC2)C(=O)N(C)c2ccccc23)s1.O=C(O)C(F)(F)F is ___
[reply] 67.96

[ask] Another compound to look at: COc1ccc(CN2C[C@H]3C[C@H](C(=O)Nc4cccnc4)[C@@H](C2)O3)cc1
[reply] 4.187

[ask] Moving on to the next compound: Cl.FC(F)CNc1cnc(C2CCCN2)cn1 (centres undefined)
[reply] -21.09

[ask] Next compound up: c1cc(-c2ccc3c(c2)CCC32CCNCC2)ccn1
[reply] -56.04

[ask] Then what about the compound Cc1ccc2c(c1)CCC21CCN(C(=O)CN(C)C)CC1.O=C(O)C(F)(F)F ?
[reply] -22.19

[ask] Moving on to Cc1ccc(CN2CCC3(CC2)C(=O)Nc2ccccc23)s1.O=C(O)C(F)(F)F
[reply] 0.7618

[ask] Same thing, different compound: Cc1ccc(CN2CCC3(C2)C(=O)N(CC(C)C)c2ccccc23)s1 (centres undefined)
[reply] 104.8

[ask] Proceed to CC(C)CN1C(=O)C2(CCN(Cc3ccc(F)cc3)C2)c2ccccc21 (centres undefined)
[reply] 17.34

[ask] Now the same for CN(C)C(=O)[C@@H]1C[C@@H]2CCN(C3CCOCC3)C[C@H]2O1.O=C(O)C(F)(F)F
[reply] -21.42

[ask] Another: CN1CCN(Cc2cccnc2)C(=O)C12CCN(Cc1ccco1)CC2.O=C(O)C(F)(F)F.O=C(O)C(F)(F)F.O=C(O)C(F)(F)F
[reply] 5.064

[ask] Now give it for Cc1ccc(CN2CC[C@H]3OCC[C@@H](C(=O)N4CCCCO4)[C@@H]3C2)o1.O=C(O)C(F)(F)F too.
[reply] -16.6

[ask] What do we get for COCCN1CCN(c2cccc(C)n2)Cc2ccc(C)nc21.O=C(O)C(F)(F)F.O=C(O)C(F)(F)F ?
[reply] 28.62

[ask] Could you do the same for CN(C)CC(=O)N1CCC2(CCc3ccc(-c4ccncc4)cc32)CC1.O=C(O)C(F)(F)F.O=C(O)C(F)(F)F , please?
[reply] -52.11

[ask] Let us now turn to Cc1ccc(CN2CCC3(C2)C(=O)N(CC(N)=O)c2ccccc23)s1 (centres undefined)
[reply] -35.1

[ask] // next record COc1ccc(CNCC2CCN(c3ccccc3OC)C2)cc1O (centres undefined)
[reply] 2.532
